Biological target: T1, IFN-αC (human, UniProt P01566 24-189)
T1 construct: Recombinant, HEK293; also called IFN-α10
Experiment: ProteOn SPR, cell supernatant;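 also: each binding measurement used just a single antigen concentration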
pKd: −log10 of the molar value.
TEST_READOUT: pKd

>>> data_value("IFWM3420 (antibody, IgG1, V domains shown, mAb; IgG1/kappa said of the parent and of selected mAbs; also called IFWB3155) VH: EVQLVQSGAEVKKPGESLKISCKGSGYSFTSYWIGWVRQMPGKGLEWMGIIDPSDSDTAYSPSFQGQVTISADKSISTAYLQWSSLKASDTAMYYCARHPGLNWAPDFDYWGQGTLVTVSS VL: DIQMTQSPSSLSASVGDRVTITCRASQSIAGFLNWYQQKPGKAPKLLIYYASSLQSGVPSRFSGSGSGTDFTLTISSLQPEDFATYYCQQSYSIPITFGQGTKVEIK")
9.95
>>> data_value("IFWM3381 (antibody, IgG1, V domains shown, mAb; IgG1/kappa said of the parent and of selected mAbs; also called IFWB3116) VH: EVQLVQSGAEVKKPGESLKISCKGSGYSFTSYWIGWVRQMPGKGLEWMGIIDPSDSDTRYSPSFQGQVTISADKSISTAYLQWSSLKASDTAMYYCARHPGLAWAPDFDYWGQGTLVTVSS VL: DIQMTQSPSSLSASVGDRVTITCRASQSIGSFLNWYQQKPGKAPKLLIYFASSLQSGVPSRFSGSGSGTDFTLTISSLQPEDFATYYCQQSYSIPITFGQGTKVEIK")
10.10
>>> data_value("IFWM3387 (antibody, IgG1, V domains shown, mAb; IgG1/kappa said of the parent and of selected mAbs; also called IFWB3122) VH: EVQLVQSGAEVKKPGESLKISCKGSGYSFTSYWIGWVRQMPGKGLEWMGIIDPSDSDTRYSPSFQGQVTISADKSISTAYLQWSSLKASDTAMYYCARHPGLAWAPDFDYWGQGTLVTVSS VL: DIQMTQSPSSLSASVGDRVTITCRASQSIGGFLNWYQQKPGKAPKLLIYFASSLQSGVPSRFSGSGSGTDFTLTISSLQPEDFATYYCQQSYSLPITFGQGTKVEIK")
10.05
>>> data_value("IFWM3389 (antibody, IgG1, V domains shown, mAb; IgG1/kappa said of the parent and of selected mAbs; also called IFWB3124) VH: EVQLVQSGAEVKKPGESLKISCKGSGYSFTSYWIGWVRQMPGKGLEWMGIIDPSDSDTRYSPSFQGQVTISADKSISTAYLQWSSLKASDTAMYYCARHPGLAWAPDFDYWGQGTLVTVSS VL: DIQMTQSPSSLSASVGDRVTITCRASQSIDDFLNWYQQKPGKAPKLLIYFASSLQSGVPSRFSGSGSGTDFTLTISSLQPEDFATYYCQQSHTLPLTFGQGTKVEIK")
10.62
>>> data_value("IFWM3375 (antibody, IgG1, V domains shown, mAb; IgG1/kappa said of the parent and of selected mAbs; also called IFWB3110) VH: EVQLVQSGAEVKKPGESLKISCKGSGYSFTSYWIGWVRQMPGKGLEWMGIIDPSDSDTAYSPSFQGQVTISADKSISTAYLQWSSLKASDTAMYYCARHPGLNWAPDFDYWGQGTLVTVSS VL: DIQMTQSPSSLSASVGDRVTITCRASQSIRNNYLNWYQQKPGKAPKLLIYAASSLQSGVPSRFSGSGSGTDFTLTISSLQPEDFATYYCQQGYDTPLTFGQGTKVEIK")
10.66

From: patent US20150368338A1
